# Tested on: Staphylococcus aureus
# assay_details: Antibacterial activity against methicillin-susceptible Staphylococcus aureus ATCC 25923 assessed as inhibition of bacterial growth by measuring zone of inhibition at 30 ug incubated for 18 to 20 hrs by CLSI based disk diffusion analysis
# Assay type: functional
# reported_conditions: time 18-20 hrs, read-out: DIZ
Would you mind telling me the reported zone of inhibition at 30 µg/disc of each entry?
Give the quantity in mm, number only.

Hi! What's the reported zone of inhibition at 30 µg/disc for N#C/C=C\S(=O)(=O)c1ccc(Cl)cc1 on Staphylococcus aureus? 20

Record: COc1ccc(S(=O)(=O)/C=C/C#N)cc1 26.9

Likewise for O=[N+]([O-])c1ccc(S(=O)(=O)/C=C/CCCBr)cc1 ? 6

Can you check Cc1ccc(S(=O)(=O)/C=C/CCCBr)cc1 next? 6

Likewise for CCS(=O)(=O)c1ccc(C)cc1 ? 6

Quick one: N#C/C=C\S(=O)(=O)c1ccc(Br)cc1 22.6

Next: C/C(=C/C#N)S(=O)(=O)c1ccc(C)cc1 23.6

Same read-out for Cc1ccc(S(=O)(=O)/C=C/C(=O)O)cc1 ? 9.94

COc1ccc(S(=O)(=O)/C=C\C#N)cc1 , same question. 24.5

Moving on to the next compound: Cc1ccc(S(=O)(=O)/C=C/c2ccc(Cl)cc2)cc1 6

Queued: Cc1ccc(S(=O)(=O)/C=C/COCc2ccccc2)cc1 8.3

What about Cc1ccc(/C=C/S(=O)(=O)c2ccc(C)cc2)cc1 ? 6

Also check N#C/C=C/S(=O)(=O)c1ccccc1 22.6

Another compound to check: N#C/C=C\S(=O)(=O)c1ccccc1 22.3

// next record Cc1ccc(S(=O)(=O)/C=C/C#N)cc1 28

Also need N#C/C=C/S(=O)(=O)c1ccc([N+](=O)[O-])cc1 , thanks. 21.1

Consider next the compound Cc1ccc(S(=O)(=O)C/C=C\Oc2ccccc2)cc1 in the same way. 6

How about this compound: CCCCOC(=O)/C=C/S(=O)(=O)c1ccc(C)cc1 13.9

Subsequent entry: N#C/C=C/S(=O)(=O)c1ccc(Br)cc1 24.7

Let us now turn to Cc1ccc(S(=O)(=O)/C=C/C(=O)OC(C)(C)C)cc1 14.9

Same question for C/C(=C\C#N)S(=O)(=O)c1ccc(C)cc1 please. 16.2

For C/C(C#N)=C\S(=O)(=O)c1ccc(C)cc1 then? 6

Next entry: O=S(=O)(/C=C/CCCBr)c1ccc(Br)cc1 6

Subsequent entry: Cc1ccc(S(=O)(=O)/C=C/Cc2ccccc2)cc1 6

Now the same for COC(=O)/C(C)=C/S(=O)(=O)c1ccc(C)cc1 6

Same question for Cc1ccc(S(=O)(=O)/C=C/C(N)=O)cc1 please. 22

Queued: N#C/C=C/S(=O)(=O)c1ccc(Cl)cc1 22.8

Next entry: COC(=O)/C=C/S(=O)(=O)c1ccc(C)cc1 20.6

###

# Test system: Staphylococcus aureus
# assay_details: Antibacterial activity against community-associated methicillin-resistant Staphylococcus aureus USA300 SF8300 assessed as inhibition of bacterial growth incubated for 18 to 20 hrs by CLSI based microdilution susceptibility analysis
# Format: functional
# reported_conditions: time 18-20 hrs
recorded_metric: MIC (µg/mL)
Number only, in µg/mL; omit the unit.

Give MIC (Staphylococcus aureus) of the following compound: CCCCOC(=O)/C=C/S(=O)(=O)c1ccc(C)cc1 60

Now consider C/C(C#N)=C\S(=O)(=O)c1ccc(C)cc1 and answer again. 30

Same lookup for N#C/C=C/S(=O)(=O)c1ccc(Br)cc1 , please. 15

What do you get for N#C/C=C\S(=O)(=O)c1ccc(Br)cc1 ? 60

Cool, now Cc1ccc(S(=O)(=O)/C=C/C#N)cc1 7.5

Now give it for Cc1ccc(S(=O)(=O)/C=C/C(=O)OC(C)(C)C)cc1 too. 30

Then what about the compound COc1ccc(S(=O)(=O)/C=C\C#N)cc1 ? 15

Repeat with C/C(=C/C#N)S(=O)(=O)c1ccc(C)cc1 7.5

Next: N#C/C=C/S(=O)(=O)c1ccc(Cl)cc1 7.5

Field entry: COc1ccc(S(=O)(=O)/C=C/C#N)cc1 3.75

Okay, and COC(=O)/C=C/S(=O)(=O)c1ccc(C)cc1 ? 15

What would you report for N#C/C=C/S(=O)(=O)c1ccccc1 ? 7.5

###

# System: Staphylococcus aureus
# assay_details: Bactericidal activity against community-associated methicillin-resistant Staphylococcus aureus USA300 SF8300 assessed as inhibition of bacterial growth incubated for 18 to 20 hrs by CLSI based microdilution susceptibility analysis
# Assay type: functional
# reported_conditions: time 18-20 hrs
Give measured MBC for each item. Keep answers brief.
# unit: µg/mL | format: bare number

For the molecule shown here, N#C/C=C/S(=O)(=O)c1ccc(Cl)cc1 , give the reported MBC. 60

Record: Cc1ccc(S(=O)(=O)/C=C/C#N)cc1 60

Field entry: Cc1ccc(S(=O)(=O)/C=C/C(=O)OC(C)(C)C)cc1 60

Proceed to N#C/C=C/S(=O)(=O)c1ccccc1 60

Try the molecule N#C/C=C/S(=O)(=O)c1ccc(Br)cc1 60

And then COC(=O)/C=C/S(=O)(=O)c1ccc(C)cc1 , what is it? 120

Lookup C/C(C#N)=C\S(=O)(=O)c1ccc(C)cc1 120

Could you do the same for COc1ccc(S(=O)(=O)/C=C/C#N)cc1 , please? 30

And then COc1ccc(S(=O)(=O)/C=C\C#N)cc1 , what is it? 60

Query C/C(=C/C#N)S(=O)(=O)c1ccc(C)cc1 next 15

For N#C/C=C\S(=O)(=O)c1ccc(Br)cc1 then? 120

###

# Tested on: Pseudomonas aeruginosa
# assay_details: Antibacterial activity against Pseudomonas aeruginosa assessed as inhibition of bacterial growth incubated for 18 to 20 hrs by CLSI based microdilution susceptibility analysis
# Type: functional
# reported_conditions: time 18-20 hrs
recorded_metric: MIC

MIC of N#C/C=C\S(=O)(=O)c1ccc(Br)cc1 on Pseudomonas aeruginosa? 60 µg/mL

Then Cc1ccc(S(=O)(=O)/C=C/C#N)cc1 ? 120 µg/mL

Queued: N#C/C=C\S(=O)(=O)c1ccc(Cl)cc1 60 µg/mL

Also N#C/C=C/S(=O)(=O)c1ccccc1 ? 60 µg/mL

Also, N#C/C=C\S(=O)(=O)c1ccccc1 please. 60 µg/mL

Do the same for N#C/C=C/S(=O)(=O)c1ccc(Br)cc1 please 120 µg/mL

Also N#C/C=C/S(=O)(=O)c1ccc(Cl)cc1 ? 60 µg/mL

Can you handle COc1ccc(S(=O)(=O)/C=C\C#N)cc1 next? 120 µg/mL

Okay, and COC(=O)/C=C/S(=O)(=O)c1ccc(C)cc1 ? > 120 µg/mL

Also need N#C/C=C/S(=O)(=O)c1ccc([N+](=O)[O-])cc1 , thanks. 120 µg/mL

Could you do the same for COc1ccc(S(=O)(=O)/C=C/C#N)cc1 , please? > 120 µg/mL
